Hello, the source for this data is patent US8106055B2, in case you need it.

# subjectOfTest: bradykinin 1 receptor (B1R) of the rat (Rattus norvegicus, UniProt P97583)
# Construct: expressed in transfected cells; host or cells: CHO K1 cells
# Sequence (P97583 whole entry): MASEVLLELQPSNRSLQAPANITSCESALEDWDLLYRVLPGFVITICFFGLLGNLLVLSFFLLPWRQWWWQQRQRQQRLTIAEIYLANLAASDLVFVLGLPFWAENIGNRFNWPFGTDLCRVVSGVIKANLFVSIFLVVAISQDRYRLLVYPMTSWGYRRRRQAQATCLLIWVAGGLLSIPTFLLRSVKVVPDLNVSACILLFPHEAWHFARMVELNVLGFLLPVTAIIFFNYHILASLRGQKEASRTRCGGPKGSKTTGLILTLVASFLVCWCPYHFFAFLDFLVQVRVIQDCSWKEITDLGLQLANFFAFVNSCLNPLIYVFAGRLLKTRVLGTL
# assaySummary: Functional investigation on the rat bradykinin 1 receptor (B1R), Ca2+ FLIPR assay in CHO K1 rB1R cells
# Assay type: cell-based
# measurementConditions: B1R antagonism rat; test substance 10 μM; Ca2+ FLIPR, CHO K1 rB1R cells
measure: B1R Ant. r [10 μM] % Inhibition (%)
Give bare numbers, in %.

compound="COc1ccc(S(=O)(=O)N2CCCCC2COCC(=O)NCCC2CCC(C(c3ccc(F)cc3)N(C)C)CC2)cc1 (centres unmarked)" measured=77

Record B1R Ant. r [10 μM] % Inhibition for all entries; do not skip any.
1. COc1cc(C)c(S(=O)(=O)N2CCC(CCOCC(=O)NCCC3CCC(C(c4ccc(F)cc4)N(C)C)CC3)CC2)c(C)c1C (centres unmarked)
2. COc1ccc(S(=O)(=O)N2CCCC2COCC(=O)NC2CCC(C(c3cccc(F)c3)N(C)C)CC2)cc1 (centres unmarked)

[27, 25]

====

# subjectOfTest: serotonin (5-HT) reuptake (Rattus norvegicus)
# Construct: synaptosomes are freshly isolated from areas of the rat brain; from tissue; host or cells: rat brain synaptosomes (P2 fraction)
# assaySummary: Inhibition of serotonin (5HT) reuptake in synaptosomes from rat brain
# Assay type: biochemical
# measurementConditions: test concentration of 10 μM
For each entry below, report its 5-HT (inhibition of reuptake of serotonin, % inhibition) value.
Numbers only, in %.

Example entries and their recorded answers appear below.
compound="Cc1cc(C)c(S(=O)(=O)N(C)CCOCC(=O)NC2CCC(C(c3cccs3)N(C)C)CC2)c(C)c1 (stereo not shown)" subjectoftest="serotonin (5-HT) reuptake (Rattus norvegicus)" measured=86
compound="CN(C)C(CCc1ccccc1)C1CCC(CNC(=O)COC2CCN(S(=O)(=O)c3ccc(F)cc3)C2)CC1 (stereo not shown)" subjectoftest="serotonin (5-HT) reuptake (Rattus norvegicus)" measured=94
compound="CN(C)C(c1ccc(F)cc1)C1CCC(CCNC(=O)COCCN2CCN(S(=O)(=O)c3ccccc3)CC2)CC1 (stereo not shown)" subjectoftest="serotonin (5-HT) reuptake (Rattus norvegicus)" measured=96
compound="COc1cc(C)c(S(=O)(=O)N(CCOCC(=O)NCCC2CCC(C(c3cccc(F)c3)N(C)C)CC2)Cc2ccccc2)c(C)c1 (stereo not shown)" subjectoftest="serotonin (5-HT) reuptake (Rattus norvegicus)" measured=92
compound="CN(C)C(c1ccccc1)C1CCC(CNC(=O)COC2CCN(S(=O)(=O)c3ccc(F)cc3)C2)CC1 (stereo not shown)" subjectoftest="serotonin (5-HT) reuptake (Rattus norvegicus)" measured=96

Record 5-HT (inhibition of reuptake of serotonin, % inhibition) for all entries; do not skip any.
1. COc1ccc(S(=O)(=O)N2CCCC2COCC(=O)NC2CCC(C(c3ccc(F)cc3)N(C)C)CC2)cc1 (stereo not shown)
2. COc1ccc(S(=O)(=O)N2Cc3ccccc3CC2COCC(=O)NCC2CCC(C(CCc3ccccc3)N(C)C)CC2)cc1 (stereo not shown)

1. 94
2. 85

====

# subjectOfTest: human bradykinin 1 receptor (B1R) (Homo sapiens, UniProt P46663)
# Construct: expressed in transfected cells; host or cells: CHO K1 cells
# Sequence (P46663 whole entry): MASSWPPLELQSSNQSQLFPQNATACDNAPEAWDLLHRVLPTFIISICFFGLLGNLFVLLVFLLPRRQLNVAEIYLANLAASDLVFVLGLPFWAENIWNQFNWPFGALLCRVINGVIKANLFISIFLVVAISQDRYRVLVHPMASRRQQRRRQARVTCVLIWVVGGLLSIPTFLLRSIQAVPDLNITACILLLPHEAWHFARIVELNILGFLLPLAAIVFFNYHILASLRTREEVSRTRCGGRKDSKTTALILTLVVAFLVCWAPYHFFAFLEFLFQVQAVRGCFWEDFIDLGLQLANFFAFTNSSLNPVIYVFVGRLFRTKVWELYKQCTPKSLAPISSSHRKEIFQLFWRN
# assaySummary: Functional investigation on the human bradykinin 1 receptor (B1R), Ca2+ FLIPR assay in CHO K1 hB1R cells
# Format: cell-based
# measurementConditions: CHO-K1, B1R antagonism human; test substance 10 μM; Ca2+ FLIPR, CHO K1 hB1R cells; read-out: B1R Ant. h [10 μM] % Inhibition
measure: inhibition at 10 µM (%)
Give bare numbers, in %.

Example entries and their recorded answers appear below.
molecule="COc1cc(C)c(S(=O)(=O)N(C)CCOCC(=O)NCC2CCC(C(c3cccs3)N(C)C)CC2)c(C)c1 (stereo not shown) [Example 69]" subjectoftest="human bradykinin 1 receptor (B1R) (Homo sapiens, UniProt P46663)" unitabbrev=% measured=104
molecule="CN(C)C(c1ccccc1)C1CCC(CNC(=O)COCCN(C)S(=O)(=O)c2ccc(F)cc2)CC1 (stereo not shown) [Example 112]" subjectoftest="human bradykinin 1 receptor (B1R) (Homo sapiens, UniProt P46663)" unitabbrev=% measured=-1
molecule="CN(CCOCC(=O)NCC1CCC(C(CCc2ccccc2)N2CCCC2)CC1)S(=O)(=O)c1ccc(Cl)cc1Cl (stereo not shown) [Example 717]" subjectoftest="human bradykinin 1 receptor (B1R) (Homo sapiens, UniProt P46663)" unitabbrev=% measured=100

Record inhibition at 10 µM for all entries; do not skip any.
1. COc1cc(C)c(S(=O)(=O)N2CCCC(OCC(=O)NC3CCC(C(c4ccccc4)N4CCN(C)CC4)CC3)C2)c(C)c1 (stereo not shown) [Example 708]
2. CN(C)C(c1ccccc1)C1CCC(NC(=O)CCNC(=O)c2nc(-c3cccs3)no2)CC1 (stereo not shown) [Example 776]
3. COc1cc(C)c(S(=O)(=O)N2CCC(OCC(=O)NCC3CCC(C(c4ccccc4)N4CCCC4)CC3)C2)c(C)c1 (stereo not shown) [Example 645]
4. O=C(COCC1CCCCN1S(=O)(=O)c1c(Cl)cc(Cl)cc1Cl)NC1CCC(C(CCc2ccccc2)N2CCOCC2)CC1 (stereo not shown) [Example 737]

100
-22
101
23

====

# subjectOfTest: serotonin (5-HT) reuptake (Rattus norvegicus, UniProt P31652)
# Construct: synaptosomes are freshly isolated from areas of the rat brain; from tissue; host or cells: rat brain synaptosomes (P2 fraction)
# Sequence (P31652 whole entry): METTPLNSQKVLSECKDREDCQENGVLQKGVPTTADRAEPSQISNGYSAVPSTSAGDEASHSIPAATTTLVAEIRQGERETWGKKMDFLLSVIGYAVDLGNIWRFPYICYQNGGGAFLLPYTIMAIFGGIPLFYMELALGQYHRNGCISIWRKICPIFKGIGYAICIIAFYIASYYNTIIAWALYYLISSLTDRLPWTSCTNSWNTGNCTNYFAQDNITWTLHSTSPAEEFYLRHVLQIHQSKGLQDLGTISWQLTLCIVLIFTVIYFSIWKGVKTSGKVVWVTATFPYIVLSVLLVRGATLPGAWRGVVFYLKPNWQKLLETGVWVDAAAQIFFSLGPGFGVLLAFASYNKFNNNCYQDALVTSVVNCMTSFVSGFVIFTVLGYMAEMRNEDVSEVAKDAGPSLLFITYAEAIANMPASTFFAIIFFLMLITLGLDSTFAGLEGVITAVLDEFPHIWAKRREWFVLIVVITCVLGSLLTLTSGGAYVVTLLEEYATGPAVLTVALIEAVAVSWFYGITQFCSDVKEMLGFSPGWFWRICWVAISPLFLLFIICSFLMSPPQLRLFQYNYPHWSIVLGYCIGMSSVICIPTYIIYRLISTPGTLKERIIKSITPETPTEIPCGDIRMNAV
# assaySummary: Inhibition of serotonin (5HT) reuptake in synaptosomes from rat brain
# Format: biochemical
# measurementConditions: test concentration of 10 μM
measure: 5-HT (inhibition of reuptake of serotonin, % inhibition)
Could you kindly put the unit after your number?

Example entries and their recorded answers appear below.
compound="CN(C)C(c1ccc(Cl)cc1)C1CCC(CCNC(=O)COCC2CCCN(S(=O)(=O)c3ccccc3)C2)CC1 (stereo not shown) [Example 425]" measured=97%
compound="CN(C)C(c1ccc(Cl)cc1)C1CCC(CCNC(=O)COC2CCN(S(=O)(=O)c3cccc(C(F)(F)F)c3)C2)CC1 (stereo not shown) [Example 431]" measured=93%
compound="COc1ccc(S(=O)(=O)N2CCCCC2CCOCC(=O)NCC2CCC(C(c3cccc(F)c3)N(C)C)CC2)cc1 (stereo not shown) [Example 203]" measured=93%

Look up and state reported 5-HT (inhibition of reuptake of serotonin, % inhibition) for COc1ccc(S(=O)(=O)N2CCCCC2COCC(=O)NCCC2CCC(C(c3ccc(Cl)cc3)N(C)C)CC2)c(OC)c1 (stereo not shown) [Example 474] 88%

====

# subjectOfTest: human bradykinin 1 receptor (B1R) (Homo sapiens)
# Construct: expressed in transfected cells; host or cells: CHO K1 cells
# assaySummary: Functional investigation on the human bradykinin 1 receptor (B1R), Ca2+ FLIPR assay in CHO K1 hB1R cells
# Type: cell-based
# measurementConditions: CHO-K1, B1R antagonism human; test substance 10 μM; Ca2+ FLIPR, CHO K1 hB1R cells; read-out: B1R Ant. h [10 μM] % Inhibition
measure: inhibition at 10 µM (%)
Answers are plain numbers, in %.

Example entries and their recorded answers appear below.
compound="CN(Cc1ccccc1)C(c1ccccc1)C1CCC(NC(=O)COCCN(C2CC2)S(=O)(=O)c2c(Cl)cc(Cl)cc2Cl)CC1 (stereo not shown)" measured=-18
compound="COc1cc(C)c(S(=O)(=O)N(C)CCOCC(=O)NC2CCC(C(c3ccccc3)N3CCCC3)CC2)c(C)c1 (stereo not shown)" measured=105
compound="CCN(CCOCC(=O)NCC1CCC(C(c2cccs2)N(C)C)CC1)S(=O)(=O)c1c(C)cc(OC)c(C)c1C (stereo not shown)" measured=86

Here is another compound to look at.
Look up and state reported inhibition at 10 µM for CN(CCOCC(=O)NC1CCC(C(CCc2ccccc2)N2CCCCC2)CC1)S(=O)(=O)c1ccc(Cl)cc1Cl (stereo not shown) 73

====

# subjectOfTest: serotonin (5-HT) reuptake (Rattus norvegicus, UniProt P31652)
# Construct: synaptosomes are freshly isolated from areas of the rat brain; from tissue; host or cells: rat brain synaptosomes (P2 fraction)
# assaySummary: Inhibition of serotonin (5HT) reuptake in synaptosomes from rat brain
# Assay type: biochemical
# measurementConditions: test concentration of 10 μM
Threshold rule: 5-HT (inhibition of reuptake of serotonin, % inhibition) greater than or equal to 90% is true (1); below that, false (0).

molecule="CCN(CCOCC(=O)NCCC1CCC(C(c2ccc(F)cc2)N(C)C)CC1)S(=O)(=O)c1c(C)cc(OC)c(C)c1C (centres unmarked)" classification="true (1)"

Here's the next entry for you.
5-HT (inhibition of reuptake of serotonin, % inhibition) >= 90% for CN(C)C(c1ccc(Cl)cc1)C1CCC(CCNC(=O)COCCN(C)S(=O)(=O)c2ccc(Cl)cc2Cl)CC1 (centres unmarked) ? false (0)

====

# subjectOfTest: bradykinin 1 receptor (B1R) of the rat (Rattus norvegicus, UniProt P97583)
# Construct: expressed in transfected cells; host or cells: CHO K1 cells
# assaySummary: Functional investigation on the rat bradykinin 1 receptor (B1R), Ca2+ FLIPR assay in CHO K1 rB1R cells
# Type: cell-based
# measurementConditions: CHO-K1, B1R antagonism rat; test substance 10 μM; Ca2+ FLIPR, CHO K1 rB1R cells; read-out: B1R Ant. r [10 μM] % Inhibition
measure: inhibition at 10 µM (%)
One number for each entry, in %.

compound="COc1cc(C)c(S(=O)(=O)N2CCCC(COCC(=O)NCC3CCC(C(c4ccccc4)N4CCCC4)CC3)C2)c(C)c1 (stereo not shown)" measured=74
compound="COc1cc(C)c(S(=O)(=O)N(C)CCOCC(=O)NCC2CCC(C(CCc3ccccc3)N3CCCC3)CC2)c(C)c1 (stereo not shown)" measured=101

Record inhibition at 10 µM for all entries; do not skip any.
1. CN(C)C(c1cccs1)C1CCC(CCNC(=O)COCCN(C)S(=O)(=O)c2ccc(F)cc2)CC1 (stereo not shown)
2. CN(C)C(c1cccs1)C1CCC(CNC(=O)COCCN(Cc2ccccc2)S(=O)(=O)c2ccccc2)CC1 (stereo not shown)
3. O=C(COC1CCCN(S(=O)(=O)c2c(Cl)cc(Cl)cc2Cl)C1)NCC1CCC(C(c2ccccc2)N2CCOCC2)CC1 (stereo not shown)
4. COc1cc(C)c(S(=O)(=O)N2CCCC2COCC(=O)NC2CCC(C(CCc3ccccc3)N3CCOCC3)CC2)c(C)c1 (stereo not shown)
5. COc1cc(C)c(S(=O)(=O)N2CCCC2COCC(=O)NC2CCC(C(CCc3ccccc3)N3CCCCC3)CC2)c(C)c1 (stereo not shown)

12
-12
25
106
107
